- tested_on: cynomolgus PSMA, full-length, on CHO cells (cynomolgus, UniProt A0A2K5VNZ0 1-750)
- assay_method_text: cell-based or functional assay
quantity_kind: His-ZAP cell killing, cyno PSMA EC50 (nM)
# unit: nM | format: bare number

Lab book: His-ZAP cell killing, cyno PSMA EC50 of single VH domain antibody 1.18 (VHH, Human single VH domain antibody (Humabody)) VHH: EVQLLESGGGLVQPGGSLRLSCAASGFSFSSYALSWVRQAPGKGLEWVSSIGENNATTDYAASVKGRFTISRDNSKNTLYLQMNSLRVEDTAVYYCVKDGVHWGQGTLVTVSS noted as 0.48

Lab book: His-ZAP cell killing, cyno PSMA EC50 of single VH domain antibody 2.1 (VHH, Human single VH domain antibody (Humabody); tested with a C-terminal His tag; 71-95; also called VH 2.1; VH2.1) VHH: EVQLVESGGGVVQPGRSLRLSCAASGFSFSGYGMHWVRQAPGKGLEWVAYISYDGSNKYYADSVKGRFTISRDNSKNTLYLQMNSLRAEDTAVYYCAKDPAWGLRLGESSSYDFDIWGQGTMVTVSS noted as 0.052

Lab book: His-ZAP cell killing, cyno PSMA EC50 of single VH domain antibody 1.14 (VHH, Human single VH domain antibody (Humabody)) VHH: EVQLLESGGGLVQPGGSLRLSCAASGFSFSSYALSWVRQAPGKGLEWVSSIGENNATTDYADVVKGRFTISRDNSKNTLYLQMNSLRVEDTAVYYCVKDGVHWGQGTLVTVSS noted as 0.79
